src = patent US9029389B2

readout: melting point (°C)

# molecule, observed_measurement
records = [
    ("CCc1nc2ccc(F)cn2c1C(=O)NCc1ccc(N2CCN(c3ccc(F)cc3)CC2)cc1 [compound 228]", 200.9),
    ("CCc1nc2ccc(Cl)cn2c1C(=O)NCc1ccc(N2CCC(CO)CC2)cc1 [compound 230]", 161.1),
    ("CCc1nc2c(C(F)(F)F)cccn2c1C(=O)NCc1ccc(N2CCOCC2)cc1 [compound 274]", 200.6),
]

---

Molecular target: Human 5-lipoxygenase (Homo sapiens)
Sequence (P09917 1-674): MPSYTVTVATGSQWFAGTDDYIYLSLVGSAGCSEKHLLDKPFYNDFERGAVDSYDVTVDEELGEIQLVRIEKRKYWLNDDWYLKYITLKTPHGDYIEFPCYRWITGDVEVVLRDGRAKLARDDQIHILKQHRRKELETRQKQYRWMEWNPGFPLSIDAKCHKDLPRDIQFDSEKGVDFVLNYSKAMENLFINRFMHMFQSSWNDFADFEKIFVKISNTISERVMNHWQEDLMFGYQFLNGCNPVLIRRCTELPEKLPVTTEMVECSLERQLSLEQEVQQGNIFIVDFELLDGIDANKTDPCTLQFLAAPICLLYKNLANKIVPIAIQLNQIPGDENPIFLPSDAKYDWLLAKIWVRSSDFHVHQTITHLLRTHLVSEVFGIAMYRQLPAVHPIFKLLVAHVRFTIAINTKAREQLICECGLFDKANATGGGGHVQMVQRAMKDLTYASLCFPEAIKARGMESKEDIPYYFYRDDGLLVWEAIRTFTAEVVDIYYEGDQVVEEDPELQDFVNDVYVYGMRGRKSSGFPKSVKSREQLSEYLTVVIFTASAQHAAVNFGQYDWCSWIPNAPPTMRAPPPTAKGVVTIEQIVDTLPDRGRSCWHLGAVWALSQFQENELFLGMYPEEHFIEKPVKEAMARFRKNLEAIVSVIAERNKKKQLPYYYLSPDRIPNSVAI

# compound, assayed_system, IC50
data = [
    ("CCc1nc2ccccn2c1C(=O)NCc1ccc(N2CCN(c3ccc(F)cc3)CC2)cc1", "Human 5-lipoxygenase (Homo sapiens)", "1 to 20 µM"),
    ("CCc1nc2cc(Cl)ccn2c1C(=O)NCc1ccc(N2CCC(COC(F)F)CC2)cc1", "Human 5-lipoxygenase (Homo sapiens)", "> 20 µM"),
    ("CCc1nc2ccc(Cl)cn2c1C(=O)NCc1ccc(Oc2ccc(OC(F)(F)F)cc2)nc1", "Human 5-lipoxygenase (Homo sapiens)", "< 1 µM"),
    ("CCc1nc2cc(Cl)ccn2c1C(=O)NCc1ccc(N2CCN(Cc3ccc(OC(F)(F)F)cc3)CC2)cc1", "Human 5-lipoxygenase (Homo sapiens)", "1 to 20 µM"),
    ("CCc1nc2ccc(Cl)cn2c1C(=O)NCc1ccc(Nc2ccc(OC(F)(F)F)cc2)cc1", "Human 5-lipoxygenase (Homo sapiens)", "1 to 20 µM"),
    ("CCc1nc2ccccn2c1C(=O)NCc1ccc(N2CCC(c3ccc(F)cc3)CC2)cc1", "Human 5-lipoxygenase (Homo sapiens)", "< 1 µM"),
    ("CCc1nc2ccccn2c1C(=O)NCc1ccc(N2CCC(c3ccc(OC(F)(F)F)cc3)CC2)cc1", "Human 5-lipoxygenase (Homo sapiens)", "< 1 µM"),
    ("CCc1nc2ccc(Cl)cn2c1CNCc1ccc(N2CCN(c3ccc(F)cc3)CC2)cc1", "Human 5-lipoxygenase (Homo sapiens)", "1 to 20 µM"),
    ("CCc1nc2ccc(C(F)(F)F)cn2c1C(=O)NCc1ccc(N2CCC(Oc3ccc(OC(F)(F)F)cc3)CC2)cc1", "Human 5-lipoxygenase (Homo sapiens)", "1 to 20 µM"),
    ("CCc1nc2ccc(Cl)cn2c1C(=O)N1CCC(OCc2ccc(OC(F)(F)F)cc2)CC1", "Human 5-lipoxygenase (Homo sapiens)", "1 to 20 µM"),
    ("CCc1nc2ccc(Cl)cn2c1C(=O)NCc1ccc(N2CC(C)CC(C)C2)cc1 (stereo not drawn)", "Human 5-lipoxygenase (Homo sapiens)", "> 20 µM"),
    ("CCc1nc2ccc(Cl)cn2c1C(=O)N1CC[C@@H](OCc2ccc(OC(F)(F)F)cc2)C1", "Human 5-lipoxygenase (Homo sapiens)", "1 to 20 µM"),
    ("CCc1nc2cc(Br)ccn2c1C(=O)NCc1ccc(N2CCN(c3ccc(F)cc3)CC2)cc1", "Human 5-lipoxygenase (Homo sapiens)", "1 to 20 µM"),
    ("CCc1nc2cc(Cl)ccn2c1C(=O)NCc1ccc(N2CCN(Cc3ccc(F)cc3)CC2)cc1", "Human 5-lipoxygenase (Homo sapiens)", "1 to 20 µM"),
    ("CCc1nc2ccc(F)cn2c1C(=O)NC1CCN(c2ccc(Nc3ccccc3)cc2)C1 (stereo not drawn)", "Human 5-lipoxygenase (Homo sapiens)", "< 1 µM"),
    ("CCc1nc2ccc(Cl)cn2c1C(=O)NCc1ccc(-c2ccccc2C)cc1", "Human 5-lipoxygenase (Homo sapiens)", "1 to 20 µM"),
    ("CCc1nc2c(F)cccn2c1C(=O)NCc1ccc(Oc2ccc(OC(F)(F)F)cc2)cc1", "Human 5-lipoxygenase (Homo sapiens)", "< 1 µM"),
    ("CCc1nc2cc(Cl)ccn2c1C(=O)NCc1ccc(N2CCCCCC2)cc1", "Human 5-lipoxygenase (Homo sapiens)", "> 20 µM"),
    ("CCc1nc2cc(Cl)ccn2c1C(=O)NCc1ccc(N2CCN(c3ccc(F)cc3)CC2)cc1", "Human 5-lipoxygenase (Homo sapiens)", "> 20 µM"),
    ("CCc1nc2ccc(Cl)cn2c1C(=O)NCc1ccc(OC(F)(F)F)cc1", "Human 5-lipoxygenase (Homo sapiens)", "1 to 20 µM"),
    ("CCc1nc2ccc(Cl)cn2c1CN1CCN(c2ccc(F)cc2)CC1", "Human 5-lipoxygenase (Homo sapiens)", "> 20 µM"),
    ("CCc1nc2ccc(Cl)cn2c1CNc1ccc(-c2ccc(OC(F)(F)F)cc2)cc1", "Human 5-lipoxygenase (Homo sapiens)", "> 20 µM"),
    ("CCc1nc2ccc(Cl)cn2c1CNc1ccc(N2CCN(c3ccc(F)cc3)CC2)cc1", "Human 5-lipoxygenase (Homo sapiens)", "< 1 µM"),
    ("CCc1nc2ccc(Cl)cn2c1C(=O)NCc1ccc(N2CCN(Cc3ccc(F)cc3)CC2)cc1", "Human 5-lipoxygenase (Homo sapiens)", "1 to 20 µM"),
    ("CCc1nc2cc(Cl)ccn2c1C(=O)NCc1ccc(-n2cc3c(c2)CCCC3)cc1", "Human 5-lipoxygenase (Homo sapiens)", "1 to 20 µM"),
    ("CCc1nc2ccc(Cl)cn2c1C(=O)N1CCC(OCc2ccccc2)CC1", "Human 5-lipoxygenase (Homo sapiens)", "> 20 µM"),
    ("CCc1nc2ccccn2c1C(=O)NCc1ccc(N2CCC(COc3ccc(F)cc3)CC2)cc1", "Human 5-lipoxygenase (Homo sapiens)", "< 1 µM"),
    ("CCc1nc2cc(Cl)ccn2c1C(=O)NCc1ccc(-c2cccc(C)c2)cc1", "Human 5-lipoxygenase (Homo sapiens)", "1 to 20 µM"),
    ("CCc1nc2ccc(Cl)cn2c1C(=O)NC1CCN(Cc2ccc(OC(F)(F)F)cc2)CC1", "Human 5-lipoxygenase (Homo sapiens)", "1 to 20 µM"),
    ("CCc1nc2cc(Cl)ccn2c1C(=O)NCc1ccc(N2CC=CCC2)cc1", "Human 5-lipoxygenase (Homo sapiens)", "> 20 µM"),
    ("CCc1nc2cc(Cl)ccn2c1C(=O)N1CCC(Oc2ccc(OC(F)(F)F)cc2)CC1", "Human 5-lipoxygenase (Homo sapiens)", "< 1 µM"),
    ("CCc1nc2c(F)cccn2c1C(=O)NCc1ccc(N2CCN(c3ccc(F)cc3)CC2)cc1", "Human 5-lipoxygenase (Homo sapiens)", "1 to 20 µM"),
    ("CCc1nc2ccc(Cl)cn2c1CNc1ccc(N2CCC(c3ccc(Cl)cc3)CC2)cc1", "Human 5-lipoxygenase (Homo sapiens)", "1 to 20 µM"),
]
